Recorded below: EC50, system Peroxisome proliferator-activated receptor gamma (Homo sapiens).
The response must be a number in nM with no trailing unit.

See these solved cases before continuing.
In [3]: df
Out[3]:
                                   compound  quantity_name  unit_label  measured_result
0  Cc1c(C(=O)c2ccc(Cl)cc2)c2ccc(OC(F)(F)F)cc2n1Cc1cccc(O[C@@H](C(=O)O)C(C)C)c1           EC50          nM                2
1  CC[C@H](Oc1cccc(Cn2c(C)c(C(=O)c3ccc(Cl)cc3)c3ccc(OC(F)(F)F)cc32)c1)C(=O)O           EC50          nM                6
2  Cc1c(C(=O)c2ccc(Cl)cc2)c2ccc(OC(F)(F)F)cc2n1Cc1cccc(OC2(C(=O)O)CCC2)c1           EC50          nM               12

// compound CCC[C@@H](Oc1cccc(Cn2c(C)c(C(=O)c3ccc(Cl)cc3)c3ccc(OC(F)(F)F)cc32)c1)C(=O)O , assay Peroxisome proliferator-activated receptor gamma (Homo sapiens), EC50 value: 10

Param item: Cc1c(Cc2cccc(OCC(=O)O)c2)c2cc(OC(F)(F)F)ccc2n1C(=O)c1ccc(Cl)cc1 ; param system: Peroxisome proliferator-activated receptor gamma (Homo sapiens); output EC50: 3

The reported EC50 value, Peroxisome proliferator-activated receptor gamma (Homo sapiens), for Cc1c(C(=O)c2ccc(Cl)cc2)c2ccc(OC(F)(F)F)cc2n1Cc1cccc(OCC(=O)O)c1 reads 2

// compound CC[C@@](C)(Oc1cccc(Cn2c(C)c(C(=O)c3ccc(Cl)cc3)c3ccc(OC(F)(F)F)cc32)c1)C(=O)O (stereo in doubt; 12j) , assay Peroxisome proliferator-activated receptor gamma (Homo sapiens), EC50 value: 2

Test item CC[C@@H](Oc1cccc(Cn2c(C)c(C(=O)c3ccc(Cl)cc3)c3ccc(OC(F)(F)F)cc32)c1)C(=O)O ; Peroxisome proliferator-activated receptor gamma (Homo sapiens); reported EC50 was 2

So the reported EC50 for Cc1c(C(=O)c2ccc(Cl)cc2)c2ccc(OC(F)(F)F)cc2n1Cc1cccc(O[C@H](C)C(=O)O)c1 , on Peroxisome proliferator-activated receptor gamma (Homo sapiens), turned out to be 4

Entry Cc1c(C(=O)c2ccc(Cl)cc2)c2ccc(OC(F)(F)F)cc2n1Cc1cccc(O[C@H](C(=O)O)C(C)C)c1 , Peroxisome proliferator-activated receptor gamma (Homo sapiens) data, EC50 value: 21

Case CCC[C@H](Oc1cccc(Cn2c(C)c(C(=O)c3ccc(Cl)cc3)c3ccc(OC(F)(F)F)cc32)c1)C(=O)O , Peroxisome proliferator-activated receptor gamma (Homo sapiens), EC50 recorded as 1
